Data provenance is paper PMC5591402.

target: N2.11; test: FP
Where no end group is shown, it is not given here.

BINDER	Kd
GYQDYEPEA (also: TAMRA fluorophore, position not given here) [TAMRA-labeled α-synuclein peptide]	21.6 nM
